assay.target: Protein Mdm4 (Homo sapiens) + E3 ubiquitin-protein ligase Mdm2 (Homo sapiens) (UniProt O15151+Q00987)
Sequence (O15151 whole entry, looked up): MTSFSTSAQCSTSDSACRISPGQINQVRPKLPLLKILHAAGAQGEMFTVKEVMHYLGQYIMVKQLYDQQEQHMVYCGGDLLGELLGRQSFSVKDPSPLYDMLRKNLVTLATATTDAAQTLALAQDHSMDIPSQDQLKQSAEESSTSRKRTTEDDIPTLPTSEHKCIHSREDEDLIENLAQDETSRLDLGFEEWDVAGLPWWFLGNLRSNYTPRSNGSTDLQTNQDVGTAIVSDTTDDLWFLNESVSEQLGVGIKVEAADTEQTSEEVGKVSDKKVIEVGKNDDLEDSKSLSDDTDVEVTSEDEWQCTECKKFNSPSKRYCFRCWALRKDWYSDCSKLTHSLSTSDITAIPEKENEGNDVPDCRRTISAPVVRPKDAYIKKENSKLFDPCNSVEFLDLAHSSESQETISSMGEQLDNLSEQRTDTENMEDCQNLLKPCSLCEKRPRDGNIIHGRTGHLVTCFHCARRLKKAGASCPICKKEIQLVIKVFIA
Sequence (Q00987 whole entry, looked up): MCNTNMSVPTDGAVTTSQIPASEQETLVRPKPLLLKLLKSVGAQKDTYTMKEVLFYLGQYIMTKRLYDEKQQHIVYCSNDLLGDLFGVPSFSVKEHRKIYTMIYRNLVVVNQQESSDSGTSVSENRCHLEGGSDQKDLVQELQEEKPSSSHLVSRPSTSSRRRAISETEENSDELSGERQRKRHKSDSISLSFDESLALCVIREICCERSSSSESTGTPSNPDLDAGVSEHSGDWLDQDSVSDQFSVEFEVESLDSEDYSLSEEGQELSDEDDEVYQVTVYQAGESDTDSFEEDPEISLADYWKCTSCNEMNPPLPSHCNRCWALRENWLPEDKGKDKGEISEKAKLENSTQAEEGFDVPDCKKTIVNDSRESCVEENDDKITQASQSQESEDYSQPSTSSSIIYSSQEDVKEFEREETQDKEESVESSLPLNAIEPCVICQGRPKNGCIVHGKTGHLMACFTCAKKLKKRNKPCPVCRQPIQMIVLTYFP
test: Mdm2-MdmX complex disruptors, retested hits, confirmation, luminescence, single concentration (AID 489028)
assay.conditions: Mdm2-MdmX binding, luminescent assay; at 8 µM; hits give high values
Screen size: about 10,000 compounds; about 5,600 (56%) were called active. The set was probably picked from earlier hits. Only a sample is shown.
measured.metric: inhibition (%)
State the answer as a number, implicitly in %.

query: State its inhibition: `O=C1NC(=O)N(CCc2ccc(F)cc2)C(=O)/C1=C/C=C/c1ccccc1`
result: 57.2

query: State its inhibition: `O=Cc1cn(Cc2ccc(F)cc2Cl)c2ccccc12`
result: 28

query: State its inhibition: `CCCCCCCCCCCCn1ccc(=N)cc1`
result: 98.3

query: State its inhibition: `O=C(c1cc2nc(-c3ccccc3)cc(-c3ccccc3)n2n1)N1CCC2(CC1)OCCO2`
result: 16.3

query: State its inhibition: `CC1(C)Cc2c(C#N)c(N3CCNCC3)nc(-c3ccco3)c2CS1`
result: 24.1

query: State its inhibition: CNCC(O)c1cc(F)c(OCc2ccccc2)c(OCc2ccccc2)c1F (stereo unspecified)
result: 17.8

query: State its inhibition: `O=c1c2ccccc2nc(/C=C/c2ccc(F)cc2)n1-c1ccccc1O`
result: 31

query: State its inhibition: `CNC(=O)O/N=C(\N)Cc1csc2ccccc12`
result: 52.6

query: State its inhibition: CC(Cc1ccccc1)NCCC(c1ccccc1)c1ccccc1 (stereo unspecified)
result: 19.1

query: State its inhibition: `CCOc1ccc(-c2cc(C)[n+](CCN(CC)CC)c(-c3ccc(OCC)cc3)c2)cc1`
result: 84.5

query: State its inhibition: `CNC(=O)O/N=C(\N)Cc1csc2ccc(Cl)cc12`
result: 90.3

Sourced from PubChem BioAssay AID489028
